tested on: Escherichia coli; assay: Antibacterial activity against Escherichia coli harboring pCOL plasmid expressing blaKPC gene by Etest method; format: functional
Measured MIC values are reported for all entries that follow.
measured-quantity: MIC (µg/mL)

molecule	reading-unit	observed
CC1(C)S[C@@H]2[C@H](NC(=O)[C@H](C(=O)O)c3ccsc3)C(=O)N2[C@H]1C(=O)O	µg/mL	2
CCN1CCN(C(=O)N[C@@H](C(=O)N[C@@H]2C(=O)N3[C@@H]2SC(C)(C)[C@@H]3C(=O)O)c2ccccc2)C(=O)C1=O	µg/mL	1.5
CC1(C)S[C@@H]2[C@H](NC(=O)[C@H](N)c3ccc(O)cc3)C(=O)N2[C@H]1C(=O)O	µg/mL	2
C[C@@H](O)[C@H]1C(=O)N2C(C(=O)O)=C(SCCNC=N)C[C@H]12 [IMIPENEM ANHYDROUS]	µg/mL	0.19
C[C@@H](O)[C@H]1C(=O)N2C(C(=O)O)=C(S[C@@H]3CN[C@H](C(=O)Nc4cccc(C(=O)O)c4)C3)[C@H](C)[C@H]12	µg/mL	0.004
CO/N=C(\C(=O)N[C@@H]1C(=O)N2C(C(=O)O)=C(COC(C)=O)CS[C@H]12)c1csc(N)n1	µg/mL	0.05
CC(=O)OCC1=C(C(=O)O)N2C(=O)[C@@H](NC(=O)Cc3cccs3)[C@H]2SC1	µg/mL	2
CC(C)(O/N=C(\C(=O)N[C@@H]1C(=O)N2C(C(=O)[O-])=C(C[n+]3ccccc3)CS[C@H]12)c1csc(N)n1)C(=O)O	µg/mL	0.19
CO/N=C(\C(=O)N[C@@H]1C(=O)N2C(C(=O)[O-])=C(C[N+]3(C)CCCC3)CS[C@H]12)c1csc(N)n1	µg/mL	0.02
C[C@@H](O)[C@H]1C(=O)N2C(C(=O)O)=C(S[C@@H]3CN[C@H](C(=O)N(C)C)C3)[C@H](C)[C@H]12	µg/mL	0.01
CO[C@@]1(NC(=O)Cc2cccs2)C(=O)N2C(C(=O)O)=C(COC(N)=O)CS[C@@H]21	µg/mL	2

---

test system: Escherichia coli; assay: Antibacterial activity against Escherichia coli DH10B expressing blaKPC gene by Etest method in presence of beta-lactamase inhibitor clavulanic acid; format: functional
measured-quantity: log10 of MIC (log10 of the value in µg/mL)

molecule	log10 of MIC
CO/N=C(\C(=O)N[C@@H]1C(=O)N2C(C(=O)O)=C(COC(C)=O)CS[C@H]12)c1csc(N)n1	-0.60
CC1(C)S[C@@H]2[C@H](NC(=O)[C@H](N)c3ccc(O)cc3)C(=O)N2[C@H]1C(=O)O	1.38
C[C@@H](O)[C@H]1C(=O)N2C(C(=O)O)=C(S[C@@H]3CN[C@H](C(=O)N(C)C)C3)[C@H](C)[C@H]12	-1.00
C[C@@H](O)[C@H]1C(=O)N2C(C(=O)O)=C(SCCNC=N)C[C@H]12 [IMIPENEM ANHYDROUS]	-0.42
C[C@@H](O)[C@H]1C(=O)N2C(C(=O)O)=C(S[C@@H]3CN[C@H](C(=O)Nc4cccc(C(=O)O)c4)C3)[C@H](C)[C@H]12	-1.30

---

system: Klebsiella pneumoniae; experiment: Antibacterial activity against Klebsiella pneumoniae GR by Etest method in presence of beta-lactamase inhibitor clavulanic acid; format: functional
Measured MIC values are reported for all entries that follow.
measured-quantity: MIC (µg/mL)

compound	limit-qualifier	observed
C[C@@H](O)[C@H]1C(=O)N2C(C(=O)O)=C(SCCNC=N)C[C@H]12 [IMIPENEM ANHYDROUS]	=	0.75
CC1(C)S[C@@H]2[C@H](NC(=O)[C@H](C(=O)O)c3ccsc3)C(=O)N2[C@H]1C(=O)O	>	256
C[C@@H](O)[C@H]1C(=O)N2C(C(=O)O)=C(S[C@@H]3CN[C@H](C(=O)Nc4cccc(C(=O)O)c4)C3)[C@H](C)[C@H]12	=	6
C[C@@H](O)[C@H]1C(=O)N2C(C(=O)O)=C(S[C@@H]3CN[C@H](C(=O)N(C)C)C3)[C@H](C)[C@H]12	=	3
CC1(C)S[C@@H]2[C@H](NC(=O)[C@H](N)c3ccc(O)cc3)C(=O)N2[C@H]1C(=O)O	=	48
CO/N=C(\C(=O)N[C@@H]1C(=O)N2C(C(=O)O)=C(COC(C)=O)CS[C@H]12)c1csc(N)n1	=	32

---

system: Escherichia coli; assay: Antibacterial activity against Escherichia coli harboring pNYC plasmid expressing blaKPC gene by Etest method; format: functional
measured-quantity: MIC

compound	observed
C[C@@H](O)[C@H]1C(=O)N2C(C(=O)O)=C(S[C@@H]3CN[C@H](C(=O)N(C)C)C3)[C@H](C)[C@H]12 [MEROPENEM]	2 µg/mL
C[C@H]1[C@H](NC(=O)/C(=N\OC(C)(C)C(=O)O)c2csc(N)n2)C(=O)N1S(=O)(=O)O [AZTREONAM]	16 µg/mL
C[C@@H](O)[C@H]1C(=O)N2C(C(=O)O)=C(S[C@@H]3CN[C@H](C(=O)Nc4cccc(C(=O)O)c4)C3)[C@H](C)[C@H]12	0.5 µg/mL
CO/N=C(\C(=O)N[C@@H]1C(=O)N2C(C(=O)[O-])=C(C[N+]3(C)CCCC3)CS[C@H]12)c1csc(N)n1	1 µg/mL
CC(=O)OCC1=C(C(=O)O)N2C(=O)[C@@H](NC(=O)Cc3cccs3)[C@H]2SC1 [CEPHALOTHIN]	> 256 µg/mL
CO[C@@]1(NC(=O)Cc2cccs2)C(=O)N2C(C(=O)O)=C(COC(N)=O)CS[C@@H]21 [CEFOXITIN]	2 µg/mL
CC1(C)S[C@@H]2[C@H](NC(=O)[C@H](C(=O)O)c3ccsc3)C(=O)N2[C@H]1C(=O)O [TICARCILLIN]	> 256 µg/mL
CC1(C)S[C@@H]2[C@H](NC(=O)[C@H](N)c3ccc(O)cc3)C(=O)N2[C@H]1C(=O)O [AMOXICILLIN]	> 256 µg/mL

---

test system: Escherichia coli; experiment: Antibacterial activity against Escherichia coli harboring pNYC plasmid expressing blaKPC gene by Etest method; assay type: functional

compound	MIC
CO/N=C(\C(=O)N[C@@H]1C(=O)N2C(C(=O)O)=C(COC(C)=O)CS[C@H]12)c1csc(N)n1 [CEFOTAXIME]	4 µg/mL
CC(C)(O/N=C(\C(=O)N[C@@H]1C(=O)N2C(C(=O)[O-])=C(C[n+]3ccccc3)CS[C@H]12)c1csc(N)n1)C(=O)O [CEFTAZIDIME]	4 µg/mL
C[C@@H](O)[C@H]1C(=O)N2C(C(=O)O)=C(SCCNC=N)C[C@H]12 [IMIPENEM ANHYDROUS]	8 µg/mL
CCN1CCN(C(=O)N[C@@H](C(=O)N[C@@H]2C(=O)N3[C@@H]2SC(C)(C)[C@@H]3C(=O)O)c2ccccc2)C(=O)C1=O [PIPERACILLIN]	> 256 µg/mL
